# Test system: PRMT1 (protein arginine N-methyltransferase 1)
# experiment: PRMT1 binders on small-molecule microarrays, primary screen, biochemical, small-molecule microarray, 635 nm fluorescence (AID 1088);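 also: binding of Prmt1 protein to compounds spotted on small-molecule microarray slides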
# assaySetup: small-molecule microarray binding, higher = more signal
valueType: composite z-score
Response field accepts a number only; no unit should be typed.

- CCCCC(=C=CC[C@H](O)c1cccc(OCCO)c1)C[C@H](O)c1cc(Cl)cc(Cl)c1O: 1.53

Query string: Record lookup: for PRMT1 (protein arginine N-methyltransferase 1), what composite z-score belongs to `O=C(c1ccccc1)N1Cc2ccccc2C[C@@]2(N=C(c3ccc(OCCCO)cc3)O[C@H]2c2ccccc2)C1=O` ?
Result string: 1.54

Query string: Now consider `C=C[C@@H](CO)NS(=O)(=O)c1ccc(Br)cc1` .
Result string: -0.635

Query string: Now consider `CN(C)CCCCNC(=O)[C@H]1C[C@H]2C(=O)N[C@@H](CCCCN(C)C)C(=O)N2[C@H]1c1ccc(O)cc1` .
Result string: 1.39

Query string: Now consider `CC(C)(C)OC(=O)CC[C@@]1(C(=O)N2CCOCC2)N=C(c2ccc(OCCCO)cc2)O[C@@H]1c1ccccc1CN=[N+]=[N-]` .
Result string: 1.38

Query string: Now consider CCCCN1CC=CC23O[C@@H]4/C=C\CCCOC(=O)C4[C@H]2C(=O)N(CCCCCCO)[C@@H]3C1=O (some centres undefined) .
Result string: 0.988

Query string: Now consider `COC(=O)[C@H]1N=C(c2ccc(OCCCO)cc2)O[C@H]1c1ccccc1N=[N+]=[N-]` .
Result string: 1.08

Query string: Now consider `O=C1N(Cc2ccccc2)c2ccccc2C[C@@]12N=C(c1ccc(OCCCO)cc1)O[C@H]2c1ccccc1` .
Result string: 1.55

Query string: Now consider `C=CCOC(=O)[C@@H]1[C@H]2C(=O)O[C@H](c3ccccc3)[C@H](c3ccccc3)N2[C@H](c2ccc(OCCOC(=O)[C@H]3C[C@H]4C(=O)N[C@@H](CCCCN(C)C)C(=O)N4[C@H]3c3cccc(OCCO)c3)cc2)[C@@]12C(=O)Nc1ccccc12` .
Result string: 0.831

Query string: Now consider `COc1ccc(CCNC(=O)[C@@]2(C)c3ccccc3C(=O)N(Cc3ccc(OC(F)(F)F)cc3)[C@H]2c2ccc(CO)cc2)cc1` .
Result string: 1.55

Query string: Now consider CC1C2C(CCCO)=CC(C3C(=O)N(C(N)=O)C(=O)C23)N1Cc1cccc(OC(F)(F)F)c1 (centres undefined) .
Result string: 1.31

---

# target: Follistatin-related protein 3 (Homo sapiens)
# experiment: FSTL3 binders on small-molecule microarrays, primary screen, biochemical, small-molecule microarray, 635 nm fluorescence (AID 1105);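 also: score merges emission near 667 nm and signal to noise per printed spot across three slides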
# assaySetup: FSTL3 binding, higher = more signal
valueType: composite z-score
Response field accepts a number only; no unit should be typed.

Some solved cases for reference:
* COc1c(C)cc(-c2cc3c(c(CCc4ccccc4)n2)[Si](C(C)C)(C(C)C)O[C@H]3c2ccccc2)cc1C | -0.257
* COc1ccc([Si](C)(C)[C@H]2[C@H](CCO)O[C@@]3(C(=O)N(Cc4ccccc4)c4ccc(NC(=O)[C@H](C)O)cc43)[C@@H]2C)cc1 | -0.0813
* C=CCNC(=O)[C@@H]1[C@H]2C(=O)O[C@H](c3ccccc3)[C@H](c3ccccc3)N2[C@H](c2ccc(OCCO)cc2)[C@@]12C(=O)N(C(=O)OCCOC)c1ccccc12 | 1.03
* C=CCOC(=O)[C@H]1[C@@H]2C(=O)O[C@@H](c3ccccc3)[C@@H](c3ccccc3)N2[C@@H](c2ccc(OCCOC(=O)[C@H]3C[C@H]4C(=O)NCC(=O)N4[C@H]3c3cccc(OCCO)c3)cc2)[C@]12C(=O)Nc1ccc(I)cc12 | 1.37
* O=C1c2ccccc2[C@@]2(Cc3ccccc3N(CC(F)(F)F)C2=O)[C@H](c2ccc(CO)cc2)N1Cc1ccccc1 | 0.766

Query string: Record lookup: for Follistatin-related protein 3 (Homo sapiens), what composite z-score belongs to CN1C(=O)C2C=CC(C(O)c3ccc(I)cc3)N(N(c3ccccc3)c3ccccc3)C2C1=O (stereo not drawn) ?
Result string: -0.309

Query string: Now consider `C=CCNC(=O)[C@H]1[C@@H]2C(=O)O[C@@H](c3ccccc3)[C@@H](c3ccccc3)N2[C@@H](c2ccc(OCCO)cc2)[C@]12C(=O)N(C(=O)OCCOC)c1ccc(C#CCC(C(=O)OC)C(=O)OC)cc12` .
Result string: 1.08

Query string: Now consider `CO[C@H]1O[C@H](CO)[C@@H](OC(=O)Nc2cccc(F)c2)[C@H](OC(=O)c2cc3ccccc3[nH]2)[C@H]1OC(=O)c1cc2ccccc2[nH]1` .
Result string: 0.469

Data provenance: PubChem BioAssay
